Reference for the values: paper PMC10754035

- assay.target: KRAS G12D (Homo sapiens, UniProt P01116, G12D)
- Construct: Human His-tagged KRAS4B (1-169) G12D, G12V and G12C were custom synthesized; 6His (pET-28a(+)-TEV vector) (N); host or cells: E. coli BL21 star (DE3)
- protocol.text: ITC binding competition with BI-2852
- settings: Kd of KRB-456 binding to KRAS G12D, preincubation with vehicle control only (no BI-2852), 15 minutes
- Experimental: All isothermal titration calorimetry (ITC) experiments were carried out at 25°C on a MicroCal PEAQ ITC Automated (Malvern). […] The final ITC buffer in the syringe and the cell was 25 mmol/L Tris HCl (pH 8.0), 100 mmol/L NaCl, 0.1 mmol/L DTT, 5% glycerol, 1% NP40, 5 mmol/L MgCl2, and 5% DMSO. […] Data were analyzed using a one site binding model with the Malvern analysis software. […]
recorded.endpoint: Kd (µM)

# molecule, recorded.endpoint, measurement.unit, value.reported
measured = [
    ("COC(=O)C1C2C3(C)C(=O)C=CC2(OC3=O)C2CCC3(CBr)CC12CC3=O (stereo not shown) [KRB-456]", "Kd", "µM", 0.285),
]
